Measured values drawn from patent US20230357447A1 for this set.

targetOfAssay: T1, Ab-12, anti-PD-L1xCD28 non-masked antibody in Vh format
T1 construct: also called PDL1xCD28 non-masked (Vh)
assayProtocol: competition ELISA: peptide titrated against 5 nM Ab-12; binding of Ab-12 to captured biotinylated CD28 antigen is read
Ends that are not written are not given here.
What pIC50 was measured for each of the following?
pIC50 is a log-scale quantity: -log10 of the concentration expressed in molar.

stdin: Please give the measured pIC50 for this binder: MDWCPRDLWHLCFS (cysteine pairing not given here; also: biotinylated, site not given here, Synthetic biotinylated peptide loaded on streptavidin biosensors) [Peptide-39]
stdout: 6.32

stdin: Please give the measured pIC50 for this binder: MDWCPRERWVDCFF (cysteine pairing not given here; also: biotinylated, site not given here) [Peptide-9]
stdout: 5.65

stdin: Please give the measured pIC50 for this binder: MDWCPLYLWNECFN (cysteine pairing not given here; also: biotinylated, site not given here, Synthetic biotinylated peptide loaded on streptavidin biosensors) [Peptide-36]
stdout: 6.40

stdin: Please give the measured pIC50 for this binder: MDWCPRERWVDCFF [Peptide-51]
stdout: 5.61

stdin: Please give the measured pIC50 for this binder: MDWCPIDLWNECFF (cysteine pairing not given here; also: biotinylated, site not given here, Synthetic biotinylated peptide loaded on streptavidin biosensors) [Peptide-31]
stdout: 5.75
